assay: NCI Yeast Anticancer Drug Screen. Data for the wt2 strain (AID 169); conditions: S. cerevisiae wt2 strain growth inhibition; at 11.0 µM; active compounds read high
Compounds without any hit were thinned out: in the full panel of roughly 79,000, 15% have a hit.
Kind request: treat 10% as inclusive, so growth inhibition at 10% or higher is Fulfilled, anything lower is Not fulfilled.

>  <MOLECULE>
CN(CCc1ccccn1)c1ccc2c(c1)Cc1ccccc1-2

>  <ASSIGNED CLASS>
Not fulfilled

$$$$
>  <MOLECULE>
COc1cc(C2SCC(=O)N2c2ccc(-c3ccc(-n4c(-c5ccccc5)nc5ccccc5c4=O)cc3)cc2)cc(OC)c1OC (stereo not drawn)

>  <ASSIGNED CLASS>
Not fulfilled

$$$$
>  <MOLECULE>
COc1ccc(-c2cn(-c3ccc(I)cc3)c3ncnc(N)c23)cc1

>  <ASSIGNED CLASS>
Not fulfilled

$$$$
>  <MOLECULE>
COc1cc2ccc(/C=C\[N+](=O)[O-])cc2cc1OC

>  <ASSIGNED CLASS>
Fulfilled

$$$$
>  <MOLECULE>
Fc1ccc(NC(=S)SCc2ccc3c(c2)OCO3)cc1F

>  <ASSIGNED CLASS>
Fulfilled

$$$$
>  <MOLECULE>
COc1cccc2nc3ccccc3nc12

>  <ASSIGNED CLASS>
Not fulfilled

$$$$
>  <MOLECULE>
O=Cc1cccc2ccc3ccccc3c12

>  <ASSIGNED CLASS>
Not fulfilled

$$$$
>  <MOLECULE>
COC(=O)c1ccc(NCC2=CC(=O)C=CC2=O)cc1O

>  <ASSIGNED CLASS>
Fulfilled

$$$$
>  <MOLECULE>
CC(=O)OCC(=O)C1(O)CCC2C3CCC4CCCCC4(C)C3CCC21C (stereo not drawn)

>  <ASSIGNED CLASS>
Not fulfilled

$$$$
>  <MOLECULE>
Cn1ccnc1Oc1ccc(Cl)cc1

>  <ASSIGNED CLASS>
Fulfilled

$$$$
>  <MOLECULE>
COc1ccc2nc3cccc([N+](=O)[O-])c3c(NCCN(CCO)CCO)c2c1

>  <ASSIGNED CLASS>
Fulfilled

$$$$
>  <MOLECULE>
COc1cc(C2C3=C(COC3=O)Oc3cc4c(cc32)OCO4)ccc1O (stereo not drawn)

>  <ASSIGNED CLASS>
Not fulfilled

$$$$
>  <MOLECULE>
CN1c2ccc(Cl)cc2C(=O)NC1c1ccc([N+](=O)[O-])s1 (stereo not drawn)

>  <ASSIGNED CLASS>
Fulfilled

$$$$
>  <MOLECULE>
Cn1c(=O)c2ccccc2c2ccccc21

>  <ASSIGNED CLASS>
Not fulfilled

$$$$
>  <MOLECULE>
Cc1c(C(Cc2ccccc2N(C)C(=O)/C=C\C(=O)O)c2c[nH]c3ccccc23)c2ccccc2n1C (stereo not drawn)

>  <ASSIGNED CLASS>
Not fulfilled

$$$$
>  <MOLECULE>
Cc1nc(-c2ccccc2)c(-c2ccccc2)s1

>  <ASSIGNED CLASS>
Not fulfilled

$$$$
>  <MOLECULE>
NCCNc1ccc(NCCN)c2c1C(=O)c1c(O)ccc(O)c1C2=O

>  <ASSIGNED CLASS>
Fulfilled

$$$$
>  <MOLECULE>
CCCCN(CCCC)CCSc1ccc(Cl)cc1

>  <ASSIGNED CLASS>
Fulfilled

$$$$
>  <MOLECULE>
COc1ccccc1C(=O)OCC1CCCN2CCCCC12 (stereo not drawn)

>  <ASSIGNED CLASS>
Fulfilled

$$$$
>  <MOLECULE>
Cc1ccc(Cl)c2[nH]c(-c3ccccc3)cc(=O)c12

>  <ASSIGNED CLASS>
Not fulfilled

$$$$
>  <MOLECULE>
Cc1[nH]c2ccccc2c1C(c1ccc(N)cc1)c1c(C)[nH]c2ccccc12

>  <ASSIGNED CLASS>
Not fulfilled

$$$$
>  <MOLECULE>
O=C(N=Nc1ccccc1Cl)NNc1ccccc1Cl

>  <ASSIGNED CLASS>
Not fulfilled

$$$$
>  <MOLECULE>
Cc1ccc(-c2ccc(Nc3c4ccccc4nc4ccccc34)cc2)cn1

>  <ASSIGNED CLASS>
Fulfilled

$$$$
>  <MOLECULE>
CCC/C(Cl)=N\OC(=O)Nc1ccc(Br)cc1

>  <ASSIGNED CLASS>
Fulfilled

$$$$
>  <MOLECULE>
Cc1c(Cl)ccc2c1S(=O)(=O)c1cccc(Cl)c1-2

>  <ASSIGNED CLASS>
Not fulfilled

$$$$
>  <MOLECULE>
[N-]=N[N+]#I1OC(C(F)(F)F)(C(F)(F)F)c2ccccc21

>  <ASSIGNED CLASS>
Fulfilled

$$$$
>  <MOLECULE>
CC(C(=O)N1C(=O)N(C(=O)[C@H](C)C(O)c2ccccc2)[C@H](c2ccccc2)[C@H]1c1ccccc1)[C@@H](O)c1ccccc1 (stereo partly drawn)

>  <ASSIGNED CLASS>
Not fulfilled

$$$$
>  <MOLECULE>
Brc1ccc(-c2cc3c(cc2C2SCCS2)OCO3)cc1

>  <ASSIGNED CLASS>
Not fulfilled

$$$$
>  <MOLECULE>
COc1ccc2c(c1)C(=O)c1ccccc1C2

>  <ASSIGNED CLASS>
Not fulfilled

$$$$
>  <MOLECULE>
c1ccc2c(c1)NC(NC1Nc3ccccc3N1)N2

>  <ASSIGNED CLASS>
Not fulfilled

$$$$
>  <MOLECULE>
COC(=O)c1ccc(CCC2=CC(=O)C(Br)=CC2=O)cc1

>  <ASSIGNED CLASS>
Fulfilled

$$$$
>  <MOLECULE>
O=[N+]([O-])c1ccc2nc3ccccc3cc2c1

>  <ASSIGNED CLASS>
Not fulfilled

$$$$
>  <MOLECULE>
CCOc1ccc2c(c1)c(CC(=O)O)cn2C

>  <ASSIGNED CLASS>
Not fulfilled

$$$$
>  <MOLECULE>
S=c1[nH]nc(Nc2ccc(Cl)cc2)s1

>  <ASSIGNED CLASS>
Not fulfilled

$$$$
>  <MOLECULE>
CCCCCCCCCCC(=O)Cl

>  <ASSIGNED CLASS>
Not fulfilled

$$$$
>  <MOLECULE>
COC1=CC(=O)C(C2(OC(C)C)OC(=O)C(Cl)=C2Cl)=CC1=O (stereo not drawn)

>  <ASSIGNED CLASS>
Fulfilled

$$$$
>  <MOLECULE>
C[C@H](CCC(=O)NN)[C@H]1CC[C@H]2[C@@H]3CC[C@@H]4C[C@H](O)CC[C@]4(C)[C@H]3CC[C@]12C

>  <ASSIGNED CLASS>
Not fulfilled

$$$$
>  <MOLECULE>
CSC(=S)N/N=C(\C)c1cccc(C)n1

>  <ASSIGNED CLASS>
Not fulfilled

$$$$
>  <MOLECULE>
CCOC(=O)[C@H]1Nc2ccccc2C2c3ccccc3CC21 (stereo partly drawn)

>  <ASSIGNED CLASS>
Fulfilled

$$$$
>  <MOLECULE>
O=C1C=CC(=C(c2ccccc2)c2ccccc2)c2ccccc21

>  <ASSIGNED CLASS>
Not fulfilled

$$$$
>  <MOLECULE>
c1ccc2c(c1)Oc1cccc3cccc-2c13

>  <ASSIGNED CLASS>
Not fulfilled

$$$$
>  <MOLECULE>
COc1cc(CC2CC(c3ccc4c(c3)OCO4)OC2=O)cc(OC)c1OC (stereo not drawn)

>  <ASSIGNED CLASS>
Not fulfilled

$$$$
>  <MOLECULE>
CCc1ncnc2cc(OCC3CO3)c(OC)cc12 (stereo not drawn)

>  <ASSIGNED CLASS>
Not fulfilled

$$$$
>  <MOLECULE>
CC(/C=C/c1ccc2c(c1)OCO2)[N+](=O)[O-] (stereo not drawn)

>  <ASSIGNED CLASS>
Fulfilled

$$$$
>  <MOLECULE>
COc1ccc2nc3c([N+](=O)[O-])ccc(NCCN(C)C)c3c(NCCN(C)C)c2c1

>  <ASSIGNED CLASS>
Not fulfilled

$$$$
>  <MOLECULE>
c1ccc(-c2nc3cccnc3s2)cc1

>  <ASSIGNED CLASS>
Not fulfilled

$$$$
>  <MOLECULE>
CN=C(N)N/N=C/c1ccc2c(c1)Cc1ccccc1-2

>  <ASSIGNED CLASS>
Not fulfilled

$$$$
>  <MOLECULE>
CCCCCCCC1(N=[N+]=[N-])C(=O)c2ccccc2N(C)C1=O (stereo not drawn)

>  <ASSIGNED CLASS>
Fulfilled

$$$$

The reported numbers originate from PubChem BioAssay (NCI).
